Quick reference: protein stability index of the listed items.
B1: IKZF1 (parent)
chain: YHSQDRYEFSSHITRGEHRFHMS

Variants of: B1
Test: protein stability index of a GFP-peptide fusion (GPS, HEK-293T) (PSI 1-6); higher = more stable;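 note: lentivirally expressed fusions sorted by FACS into six bins by GFP to DsRed ratio, PSI derived from sequencing read proportions per bin multiplied by bin number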
Conditions: c terminus: native
Field format: numeric only.

Below, 2 variants whose answers are already recorded.
| Mutant Name | Data Value |
| --- | --- |
| I13H | 2.36 |
| H12D | 1.88 |

What protein stability index value was documented for this variant, F20R ?
2.36

Another variant: F9K
2.05

Item: H18R
1.82

Try the variant T14W
2.7

Param item: R15V
1.82

What would you report for I13M ?
2.04

And what about the variant R15I ?
3.49

Now the same for D5E
3

Consider next the variant H2Y in the same way.
2.85

Please answer likewise for F9A
2.02

Y7G ?
2.44

Another: R19V
2.16

E17Y ?
1.7

Then R6G ?
2.22

Same again, this time with M22A
2.58

Try this variant next: S10M
1.6

Note, next up: H2F
2.51

Also Y1S , if possible.
4.05
